target: Msn1 (UniProt P22148)
Sequence: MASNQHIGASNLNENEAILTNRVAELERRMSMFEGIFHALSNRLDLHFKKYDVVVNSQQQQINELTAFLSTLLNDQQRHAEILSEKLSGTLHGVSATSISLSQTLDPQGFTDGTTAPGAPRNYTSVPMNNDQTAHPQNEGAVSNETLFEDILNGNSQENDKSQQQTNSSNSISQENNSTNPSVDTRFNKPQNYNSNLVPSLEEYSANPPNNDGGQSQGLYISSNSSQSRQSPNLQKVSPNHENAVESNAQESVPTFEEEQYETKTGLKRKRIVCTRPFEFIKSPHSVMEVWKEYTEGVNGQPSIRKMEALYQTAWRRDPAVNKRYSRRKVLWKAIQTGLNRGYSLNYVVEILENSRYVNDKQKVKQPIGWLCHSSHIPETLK
test name: PBM E-score (8-mer binding enrichment) (E-score (-0.5 to 0.5)); higher = stronger / more preferred TF binding
test parameters: protein concentration: 200 nM; construct: GST-full length
Whole data set: some 33,000 sequences, median “E-score (-0.5 to 0.5)” near -0.013, cut for the highest 2% near 0.3. The list comes from a sample in which the highest values are over-represented; it also holds close analogues and randomly drawn sequences.
Values of PBM E-score greater than or equal to 0.2 map to true (1); values below map to false (0).

Below, 5 sequences whose answers are already recorded.
record sequence: CTGTCCAA
group label: true (1)

record sequence: ATGTGTCA
group label: true (1)

record sequence: GTGTCCAA
group label: true (1)

record sequence: AGGTCCAC
group label: false (0)

record sequence: ACGGTTAA
group label: false (0)

Challenge: Quick check, PBM E-score >= 0.2? AGGTCCAA
Response given: false (0)

Challenge: Quick check, PBM E-score >= 0.2? AAGTCCAG
Response given: true (1)

Challenge: Quick check, PBM E-score >= 0.2? ATTCGGAC
Response given: true (1)

Challenge: Quick check, PBM E-score >= 0.2? AGGTGTCC
Response given: true (1)

Challenge: Quick check, PBM E-score >= 0.2? ATGTCCAC
Response given: true (1)

Challenge: Quick check, PBM E-score >= 0.2? GAGTCCAA
Response given: false (0)

###

target: Msn1 (UniProt P22148)
Sequence: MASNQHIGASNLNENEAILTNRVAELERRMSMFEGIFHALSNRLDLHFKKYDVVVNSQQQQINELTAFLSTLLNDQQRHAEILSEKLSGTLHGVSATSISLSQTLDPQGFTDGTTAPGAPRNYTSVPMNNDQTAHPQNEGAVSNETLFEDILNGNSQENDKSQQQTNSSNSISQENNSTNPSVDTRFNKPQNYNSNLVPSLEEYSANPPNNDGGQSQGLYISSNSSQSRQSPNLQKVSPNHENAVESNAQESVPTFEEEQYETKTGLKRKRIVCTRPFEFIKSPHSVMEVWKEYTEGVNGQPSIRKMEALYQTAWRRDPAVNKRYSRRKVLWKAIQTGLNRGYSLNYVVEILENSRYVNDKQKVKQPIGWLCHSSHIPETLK
test name: PBM E-score (8-mer binding enrichment) (E-score (-0.5 to 0.5)); higher = stronger / more preferred TF binding
test parameters: protein concentration: 200 nM; construct: GST-full length
In all, about 33,000 sequences were measured (“E-score (-0.5 to 0.5)”: median about -0.013, highest 2% from about 0.3 on). The entries come from a sample that favours the highest values as a whole.
Item-by-item account of PBM E-score
Give only the figure.

record sequence: ATGTCAAG
data value: 0.217

Entry CCAGGACC : PBM E-score on Msn1 (UniProt P22148) = -0.105

Entry AGTTAGAC : PBM E-score on Msn1 (UniProt P22148) = 0.124

Entry ATGTCAAA : PBM E-score on Msn1 (UniProt P22148) = 0.323

Entry AAGTCCTC : PBM E-score on Msn1 (UniProt P22148) = 0.244

Entry TCAGGAGA : PBM E-score on Msn1 (UniProt P22148) = -0.0143

###

Item-by-item account of PBM E-score
target: Msn1 (UniProt P22148)
Sequence: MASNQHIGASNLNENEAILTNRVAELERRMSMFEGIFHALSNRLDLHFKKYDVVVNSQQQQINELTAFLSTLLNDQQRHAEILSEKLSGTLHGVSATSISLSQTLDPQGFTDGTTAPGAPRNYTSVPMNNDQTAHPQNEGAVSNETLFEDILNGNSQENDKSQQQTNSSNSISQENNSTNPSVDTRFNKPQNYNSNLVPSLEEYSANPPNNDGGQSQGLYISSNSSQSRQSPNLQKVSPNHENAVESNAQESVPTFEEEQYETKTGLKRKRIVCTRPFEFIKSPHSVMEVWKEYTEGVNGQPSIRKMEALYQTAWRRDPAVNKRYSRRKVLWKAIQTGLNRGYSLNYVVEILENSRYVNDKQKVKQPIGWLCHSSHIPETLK
test name: PBM E-score (8-mer binding enrichment) (E-score (-0.5 to 0.5)); higher = stronger / more preferred TF binding
test parameters: protein concentration: 200 nM; construct: GST-full length
The full ranking holds about 33,000 sequences; the median of “E-score (-0.5 to 0.5)” is about -0.013, and the highest 2% start at about 0.3. The sample holds the highest values, similar sequences and a random draw of the others, so the mix is not that of the screen.
Give only the figure.

Example sequences with recorded PBM E-score:
record sequence: AAATATGC
PBM E-score: -0.0194
//
record sequence: AACATATA
PBM E-score: 0.0881
//
record sequence: CTGACAAC
PBM E-score: 0.108
//
record sequence: AAATATAA
PBM E-score: 0.272
//
record sequence: ACAACATG
PBM E-score: 0.0414

PBM E-score measured on CACACATA = 0.0356

PBM E-score measured on ATGACAAT = 0.365

PBM E-score measured on CTGACAAA = 0.37

PBM E-score measured on TTGACAAA = 0.266

PBM E-score measured on ATGACAAA = 0.433

PBM E-score measured on AAATATAC = 0.0952

###

Item-by-item account of PBM E-score
target: Msn1 (UniProt P22148)
Sequence: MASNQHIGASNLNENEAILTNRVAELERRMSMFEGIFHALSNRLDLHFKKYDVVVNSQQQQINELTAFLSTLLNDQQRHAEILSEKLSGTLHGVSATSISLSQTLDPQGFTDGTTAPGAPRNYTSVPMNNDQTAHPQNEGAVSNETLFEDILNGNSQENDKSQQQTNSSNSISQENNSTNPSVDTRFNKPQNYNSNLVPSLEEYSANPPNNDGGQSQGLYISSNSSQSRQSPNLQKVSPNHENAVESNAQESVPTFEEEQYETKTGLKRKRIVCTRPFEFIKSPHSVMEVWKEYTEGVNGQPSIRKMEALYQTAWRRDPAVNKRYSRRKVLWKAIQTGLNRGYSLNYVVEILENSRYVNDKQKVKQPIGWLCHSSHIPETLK
test name: PBM E-score (8-mer binding enrichment) (E-score (-0.5 to 0.5)); higher = stronger / more preferred TF binding
test parameters: protein concentration: 200 nM; construct: GST-full length
Whole data set: some 33,000 sequences, median “E-score (-0.5 to 0.5)” near -0.013, cut for the highest 2% near 0.3. Only a selection was taken, and the highest values are over-represented in it overall.

Example sequences with recorded PBM E-score:
record sequence: ATGTCGAG
PBM E-score: 0.162
--
record sequence: CGAGGACA
PBM E-score: 0.453
--
record sequence: AGACATCG
PBM E-score: 0.226
--
record sequence: CGAGGACC
PBM E-score: -0.14

Consider the record given below.
Entry TGAGGACA : PBM E-score on Msn1 (UniProt P22148) = 0.46

###

Item-by-item account of PBM E-score
target: Msn1 (UniProt P22148)
Sequence: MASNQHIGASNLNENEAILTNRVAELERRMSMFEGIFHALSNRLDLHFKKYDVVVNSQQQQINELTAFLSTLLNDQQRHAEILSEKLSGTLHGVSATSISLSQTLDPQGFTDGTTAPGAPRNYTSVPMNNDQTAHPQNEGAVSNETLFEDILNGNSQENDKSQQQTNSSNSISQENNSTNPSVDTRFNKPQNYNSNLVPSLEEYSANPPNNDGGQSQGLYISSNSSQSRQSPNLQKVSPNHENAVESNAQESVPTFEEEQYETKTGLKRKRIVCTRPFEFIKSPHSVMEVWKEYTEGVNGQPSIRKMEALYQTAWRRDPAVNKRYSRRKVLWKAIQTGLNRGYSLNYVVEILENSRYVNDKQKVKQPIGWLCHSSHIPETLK
test name: PBM E-score (8-mer binding enrichment) (E-score (-0.5 to 0.5)); higher = stronger / more preferred TF binding
test parameters: protein concentration: 200 nM; construct: GST-full length
The full ranking holds about 33,000 sequences; the median of “E-score (-0.5 to 0.5)” is about -0.013, and the highest 2% start at about 0.3. What follows is part of a selection rich in the highest values, with near analogues and random picks from the rest.

Example sequences with recorded PBM E-score:
record sequence: TAGACGAA
PBM E-score: 0.0138

record sequence: GACGGAAA
PBM E-score: 0.106

record sequence: CATGACAA
PBM E-score: 0.383

record sequence: GCGTCTAC
PBM E-score: -0.0433

record sequence: ACATTCAA
PBM E-score: 0.134

PBM E-score measured on TCCTGAGA = 0.0942

PBM E-score measured on AGATTGTG = -0.0281
